READOUT_LABEL: melting point

Q) Give recorded melting point. `COc1cc(Nc2nccc(Nc3ccc(OCC(=O)OC(C)(C)C)cc3)n2)cc(OC)c1OC`
A) 139 °C

Q) Give recorded melting point. `Nc1cc(O)c(C(=O)O)cc1Cl`
A) 192 °C

Q) Give recorded melting point. `C=C(c1ccc(C(C)C)cc1)c1c(C)c(NC(=O)CC(C)(C)C)c(C)c2c1OCC2`
A) 188 to 189 °C

Q) Give recorded melting point. `C=C(C)C#Cc1cccc2c1C(=O)OC(C)(C)O2`
A) 60 °C

Q) Give recorded melting point. `COc1cc2c(Nc3cccc(C)c3)ncnc2cc1OC(C)C`
A) 218 to 221 °C

Q) Give recorded melting point. CC1(c2cccc(OCc3ccccc3)c2)C(=O)Nc2cc(Cl)cc(Cl)c2C1=O (stereo not given)
A) 201 to 203 °C

Q) Give recorded melting point. O=C(CCl)NC(c1ccccc1)C(O)c1ccccc1 (stereo not given)
A) 166 to 169 °C

Q) Give recorded melting point. CC(C)(NC(=O)C(O)C(Cc1ccc(S(C)(=O)=O)cc1)NC(=O)OCc1ccccc1)C(=O)O (stereo not given)
A) 146 to 147 °C

Q) Give recorded melting point. COC(=O)CCc1cc2c(s1)-n1c(C)nnc1C(C)N=C2c1ccccc1Cl (stereo not given)
A) 131 to 132 °C

Q) Give recorded melting point. CCOC(=O)C1Sc2ccccc2C1=O (stereo not given)
A) 138 to 140 °C
